test target: Disintegrin and metalloproteinase domain-containing protein 10 (Homo sapiens)
protocol text: blockers of ADAM10 peptide cleavage – biochemical, QFRET, HTS, primary screen (AID 720582);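 note: 0% = DMSO wells while the 100% control is not disclosed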
recorded conditions: recombinant ADAM10, EDANS/DABCYL FRET peptide cleavage, 3 h; at 7 µM; active compounds read high
The whole screen tested about 370,000 compounds, of which about 2,300 (0.62%) were called active. Shown is part of a subset that was picked to be rich in actives.
# inhibition annotations
value type: inhibition (%)

molecule: Cc1ccc(-n2c(SCC(=O)Nc3ccc(S(=O)(=O)Nc4nccs4)cc3)nnc2-c2ccncc2)cc1
test target: Disintegrin and metalloproteinase domain-containing protein 10 (Homo sapiens)
value type: inhibition
unit descriptor: %
measured: -1.24

molecule: Cc1ccc(OCc2nc(C#N)c(N3CCCC3)o2)cc1
test target: Disintegrin and metalloproteinase domain-containing protein 10 (Homo sapiens)
value type: inhibition
unit descriptor: %
measured: -0.05

molecule: Cc1ccc(S(=O)(=O)N2CCN(C(=O)COC(=O)c3c(C)cc(C)cc3C)CC2)c(C)c1
test target: Disintegrin and metalloproteinase domain-containing protein 10 (Homo sapiens)
value type: inhibition
unit descriptor: %
measured: 23.9

molecule: COc1ccnc(C(=O)N2CCC(Oc3cccnc3)CC2)c1
test target: Disintegrin and metalloproteinase domain-containing protein 10 (Homo sapiens)
value type: inhibition
unit descriptor: %
measured: 1.62

molecule: CCOc1ccc(Nc2oc(Cc3ccccc3)nc2C#N)cc1
test target: Disintegrin and metalloproteinase domain-containing protein 10 (Homo sapiens)
value type: inhibition
unit descriptor: %
measured: 23.6

molecule: O=C(c1cccs1)n1nc(NCc2ccccc2)nc1NCc1ccccc1
test target: Disintegrin and metalloproteinase domain-containing protein 10 (Homo sapiens)
value type: inhibition
unit descriptor: %
measured: -4.16

molecule: CCCC(=O)n1nc(NCc2ccc(OC)cc2)nc1NCc1ccc(OC)cc1
test target: Disintegrin and metalloproteinase domain-containing protein 10 (Homo sapiens)
value type: inhibition
unit descriptor: %
measured: 21.3

molecule: COC[C@@H]1CCCN1c1ccc2c(c1)O[C@H](C)CCN(C1CC1)S2(=O)=O
test target: Disintegrin and metalloproteinase domain-containing protein 10 (Homo sapiens)
value type: inhibition
unit descriptor: %
measured: -3.66

molecule: Cc1ccc(S(=O)(=O)N2CCN(C(=O)COC(=O)CNC(=O)c3ccc(C(C)(C)C)cc3)CC2)c(C)c1
test target: Disintegrin and metalloproteinase domain-containing protein 10 (Homo sapiens)
value type: inhibition
unit descriptor: %
measured: -0.12

molecule: COc1ccc(-n2c(SCC(=O)Nc3ccc(C)c(Cl)c3)nc3ccccc3c2=O)cc1
test target: Disintegrin and metalloproteinase domain-containing protein 10 (Homo sapiens)
value type: inhibition
unit descriptor: %
measured: -4.98

* * *

test target: Disintegrin and metalloproteinase domain-containing protein 10 (Homo sapiens)
protocol text: blockers of ADAM10 peptide cleavage – biochemical, QFRET, HTS, primary screen (AID 720582);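 note: 0% = DMSO wells while the 100% control is not disclosed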
recorded conditions: recombinant ADAM10, EDANS/DABCYL FRET peptide cleavage, 3 h; at 7 µM
Among all 370,000 compounds or so, about 2,300 (0.62%) were called active.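 How the source made its calls: active means inhibition above a per-campaign cutoff equal to the mean of compounds falling between control-based bounds plus 3 SD (cut at about 20% in these data); inactive means the rest.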 Only a selection was taken, and actives are over-represented in it overall.
Labels: active, inactive

compound: NC(c1csc(NC(=O)Nc2ccccc2Oc2ccccc2)n1)c1ccccc1Cl (stereo not given)
classification: inactive
--
compound: CCOC(=O)[C@@]12CCC3=C1N(CCC3)C(=O)[C@H](CC(=O)N1CCN(C(=O)c3ccco3)CC1)C2
classification: inactive
--
compound: CC1(C(=O)NCc2ccc3c(c2)OCO3)CCN1C(=O)Cc1cccc2ccccc12 (stereo not given)
classification: inactive
--
compound: CCOC(=O)c1csc(NC(=O)Nc2cccc(OC)c2)n1
classification: inactive
--
compound: CCC(=O)OCc1c(C(F)(F)F)nn(C)c1Oc1cccc(C(F)(F)F)c1
classification: inactive
--
compound: O=C(CN(CC1CCCO1)C(=O)CNS(=O)(=O)c1ccc(Cl)cc1)NCc1ccccc1 (stereo not given)
classification: inactive
--
compound: COc1ccc(C(N)c2csc(NC(=O)Nc3cccc(C(F)(F)F)c3)n2)cc1 (stereo not given)
classification: active
--
compound: Cn1nc(C(F)(F)F)c(C(=O)Nc2cccc(C(F)(F)F)c2)c1SCc1ccc(Cl)cc1
classification: active
--
compound: CCOC(=O)[C@]12CCCC=C1N(CCCOC)C(=O)[C@@H]2CC(=O)N1CCOCC1
classification: inactive
--
compound: CC(c1c[nH]c2ccccc12)c1c(-c2ccccc2)n(C)c2ccccc12 (stereo not given)
classification: inactive
